Target: CYP3A4 (Homo sapiens, UniProt P08684)
Sequence (P08684 whole entry): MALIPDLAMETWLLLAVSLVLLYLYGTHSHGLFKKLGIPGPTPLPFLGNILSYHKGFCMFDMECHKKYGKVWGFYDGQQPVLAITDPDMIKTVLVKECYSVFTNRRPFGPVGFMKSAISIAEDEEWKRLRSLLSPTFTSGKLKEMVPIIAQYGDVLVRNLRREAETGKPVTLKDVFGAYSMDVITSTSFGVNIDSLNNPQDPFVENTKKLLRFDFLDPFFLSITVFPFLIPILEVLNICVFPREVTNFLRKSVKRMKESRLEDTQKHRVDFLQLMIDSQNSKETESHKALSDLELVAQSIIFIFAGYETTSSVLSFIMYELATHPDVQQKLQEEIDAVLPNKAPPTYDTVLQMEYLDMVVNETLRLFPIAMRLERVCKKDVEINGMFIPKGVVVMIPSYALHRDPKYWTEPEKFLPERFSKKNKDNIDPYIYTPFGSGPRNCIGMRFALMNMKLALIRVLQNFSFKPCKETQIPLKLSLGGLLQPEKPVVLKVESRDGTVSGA
Experiment: Inhibition of recombinant CYP3A4 expressed in baculovirus-infected insect microsome at 10 uM
Assay type: ADME
Assign met whenever inhibition at 10 µM does not fall below 90%; assign not met whenever it does.

| MOLECULE | TARGET_SYSTEM | ANSWER_LABEL |
| --- | --- | --- |
| CCC(c1ccc(-c2ccc(O)c(O)c2)cc1)n1ccnc1 (racemic) | CYP3A4 (Homo sapiens, UniProt P08684) | met |
| CCC(c1ccc(-c2cc(C)c(O)c(C)c2)cc1)n1ccnc1 (racemic) | CYP3A4 (Homo sapiens, UniProt P08684) | met |
| CCC(c1ccc(-c2cc(O)cc(O)c2)cc1)n1ccnc1 (racemic) | CYP3A4 (Homo sapiens, UniProt P08684) | met |
| CCC(c1ccc(-c2ccc(OC)cc2)cc1)n1ccnc1 (racemic) | CYP3A4 (Homo sapiens, UniProt P08684) | not met |
| CCC(c1ccc(-c2ccc(O)c(Cl)c2)cc1)n1ccnc1 (racemic) | CYP3A4 (Homo sapiens, UniProt P08684) | met |

###

// inhibition at 0.2 µM lookup, one value per entry
Target: Steroid 17-alpha-hydroxylase/17,20 lyase (Homo sapiens, UniProt P05093)
Sequence (P05093 whole entry): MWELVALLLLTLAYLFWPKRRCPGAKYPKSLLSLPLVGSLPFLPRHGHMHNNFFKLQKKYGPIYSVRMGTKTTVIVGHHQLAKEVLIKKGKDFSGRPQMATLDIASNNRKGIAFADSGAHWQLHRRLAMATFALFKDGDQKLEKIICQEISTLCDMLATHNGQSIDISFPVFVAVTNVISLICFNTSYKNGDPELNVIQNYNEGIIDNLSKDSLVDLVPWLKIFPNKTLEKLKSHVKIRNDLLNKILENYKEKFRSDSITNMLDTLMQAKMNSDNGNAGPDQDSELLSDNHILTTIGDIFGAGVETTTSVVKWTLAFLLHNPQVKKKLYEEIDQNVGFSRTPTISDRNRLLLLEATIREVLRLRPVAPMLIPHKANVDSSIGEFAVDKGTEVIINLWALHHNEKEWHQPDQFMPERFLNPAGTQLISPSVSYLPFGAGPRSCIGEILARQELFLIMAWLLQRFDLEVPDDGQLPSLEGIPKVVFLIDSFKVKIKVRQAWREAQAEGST
Assay: Inhibition of human CYP17 expressed in Escherichia coli coexpressing NADPH-P450 reductase at 0.2 uM

| MOLECULE | inhibition at 0.2 µM / % |
| --- | --- |
| COc1cccc(-c2ccc(C(C)n3ccnc3)cc2)c1 (racemic) | 8 |
| CCC(c1ccc(-c2ccc(OC)cc2)cc1)n1ccnc1 (racemic) | 2 |
| CCC(c1ccc(-c2ccc(O)c(O)c2)cc1)n1ccnc1 (racemic) | 56 |
| CCC(c1ccc(-c2cccc(OC)c2)cc1)n1ccnc1 (racemic) | 31 |
| CCC(c1ccc(-c2cccc(O)c2)cc1)n1ccnc1 (racemic) | 55 |
| CCC(c1ccc(-c2ccc(O)c(C)c2)cc1)n1ccnc1 (racemic) | 45 |
| CCC(c1ccc(-c2ccc(O)cc2)cc1F)n1ccnc1 (racemic) | 64 |
| CCC(c1ccc(-c2ccc(OC)c(OC)c2)cc1)n1ccnc1 (racemic) | 9 |
| CCOc1ccc(-c2ccc(C(CC)n3ccnc3)cc2)cc1 (racemic) | 3 |
| CCC(c1ccc(-c2ccc(O)cc2)cc1)n1ccnc1 (racemic) | 27 |
| CCC(c1ccc(-c2cc(C)c(O)c(C)c2)cc1)n1ccnc1 (racemic) | 28 |
| CCC(c1ccc(-c2ccc(O)c(Cl)c2)cc1)n1ccnc1 (racemic) | 44 |
| CCC(c1ccc(-c2cc(O)cc(O)c2)cc1)n1ccnc1 (racemic) | 48 |
| COc1ccc(-c2ccc(C(C)n3ccnc3)cc2)cc1 (racemic) | 9 |
| CCC(c1ccc(-c2ccc(O)c(O)c2)cc1F)n1ccnc1 (racemic) | 69 |

###

Molecular target: CYP3A4 (Homo sapiens, UniProt P08684)
Assay: Inhibition of recombinant CYP3A4 expressed in baculovirus-infected insect microsome at 1 uM
Type: ADME
Conditions: human
Decision: inhibition at 1 µM >= 80% yields MET, all other cases yield NOT MET.

| MOLECULE | TARGET_SYSTEM | ANSWER_LABEL |
| --- | --- | --- |
| CCC(c1ccc(-c2ccc(OC)c(OC)c2)cc1)n1ccnc1 (racemic) | CYP3A4 (Homo sapiens, UniProt P08684) | NOT MET |
| CCC(c1ccc(-c2ccc(O)c(C)c2)cc1)n1ccnc1 (racemic) | CYP3A4 (Homo sapiens, UniProt P08684) | MET |
| CCC(c1ccc(-c2ccc(O)c(O)c2)cc1)n1ccnc1 (racemic) | CYP3A4 (Homo sapiens, UniProt P08684) | MET |
| CCC(c1ccc(-c2ccc(OC)cc2)cc1)n1ccnc1 (racemic) | CYP3A4 (Homo sapiens, UniProt P08684) | NOT MET |
| CCC(c1ccc(-c2ccc(O)cc2)cc1F)n1ccnc1 (racemic) | CYP3A4 (Homo sapiens, UniProt P08684) | MET |
| CCC(c1ccc(-c2cccc(O)c2)cc1)n1ccnc1 (racemic) | CYP3A4 (Homo sapiens, UniProt P08684) | MET |
| CCC(c1ccc(-c2ccc(O)c(O)c2)cc1F)n1ccnc1 (racemic) | CYP3A4 (Homo sapiens, UniProt P08684) | MET |
| CCC(c1ccc(-c2cc(O)cc(O)c2)cc1)n1ccnc1 (racemic) | CYP3A4 (Homo sapiens, UniProt P08684) | MET |
| CCC(c1ccc(-c2cc(C)c(O)c(C)c2)cc1)n1ccnc1 (racemic) | CYP3A4 (Homo sapiens, UniProt P08684) | MET |
| CCC(c1ccc(-c2ccc(O)cc2)cc1)n1ccnc1 (racemic) | CYP3A4 (Homo sapiens, UniProt P08684) | MET |

###

Here's a batch of compounds along with measured IC50 for Steroid 17-alpha-hydroxylase/17,20 lyase (Homo sapiens).

| COMPOUND | TARGET_SYSTEM | VALUE_UNITS | IC50 |
| --- | --- | --- | --- |
| CCC(c1ccc(-c2ccc(O)c(O)c2)cc1)n1ccnc1 (racemic) | Steroid 17-alpha-hydroxylase/17,20 lyase (Homo sapiens) | nM | 152 |
| CCC(c1ccc(-c2ccc(O)cc2)cc1)n1ccnc1 (racemic) | Steroid 17-alpha-hydroxylase/17,20 lyase (Homo sapiens) | nM | 231 |
| CCC(c1ccc(-c2cccc(O)c2)cc1)n1ccnc1 (racemic) | Steroid 17-alpha-hydroxylase/17,20 lyase (Homo sapiens) | nM | 164 |
| CCC(c1ccc(-c2cc(C)c(O)c(C)c2)cc1)n1ccnc1 (racemic) | Steroid 17-alpha-hydroxylase/17,20 lyase (Homo sapiens) | nM | 379 |
| CCC(c1ccc(-c2cc(O)cc(O)c2)cc1)n1ccnc1 (racemic) | Steroid 17-alpha-hydroxylase/17,20 lyase (Homo sapiens) | nM | 195 |
| CCC(c1ccc(-c2ccc(O)c(C)c2)cc1)n1ccnc1 (racemic) | Steroid 17-alpha-hydroxylase/17,20 lyase (Homo sapiens) | nM | 261 |
| CCC(c1ccc(-c2ccc(O)cc2)cc1F)n1ccnc1 (racemic) | Steroid 17-alpha-hydroxylase/17,20 lyase (Homo sapiens) | nM | 90 |

###

Target: CYP11B1 (Homo sapiens)
Sequence (P15538 whole entry): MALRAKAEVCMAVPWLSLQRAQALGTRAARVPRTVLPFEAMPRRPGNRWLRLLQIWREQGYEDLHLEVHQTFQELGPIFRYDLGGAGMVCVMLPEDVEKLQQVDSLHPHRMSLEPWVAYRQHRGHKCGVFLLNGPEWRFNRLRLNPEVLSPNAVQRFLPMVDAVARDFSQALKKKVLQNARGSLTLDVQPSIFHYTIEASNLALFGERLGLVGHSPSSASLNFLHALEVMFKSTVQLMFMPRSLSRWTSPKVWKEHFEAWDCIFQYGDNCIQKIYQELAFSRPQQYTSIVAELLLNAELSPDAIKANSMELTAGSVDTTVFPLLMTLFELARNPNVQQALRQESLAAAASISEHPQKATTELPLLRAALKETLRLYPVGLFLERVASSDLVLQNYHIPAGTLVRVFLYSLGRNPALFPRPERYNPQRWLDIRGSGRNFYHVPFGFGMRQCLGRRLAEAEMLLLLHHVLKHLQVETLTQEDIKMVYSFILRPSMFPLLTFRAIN
Assay: Inhibition of recombinant CYP11B1 expressed in expressed in V79MZh11B1 cells at 2 uM
Assay type: cell-based
Conditions: hamster, V79MZh11B1 cells expressing recombinant CYP11B1

| COMPOUND | inhibition at 2 µM / % |
| --- | --- |
| CCC(c1ccc(-c2ccc(O)c(O)c2)cc1)n1ccnc1 (racemic) | 92 |
| CCC(c1ccc(-c2ccc(O)cc2)cc1)n1ccnc1 (racemic) | 95 |
| CC(=O)N1CCN(c2ccc(OCC3COC(Cn4ccnc4)(c4ccc(Cl)cc4Cl)O3)cc2)CC1 (stereo unspecified) [KETOCONAZOLE] | 93 |
| CCC(c1ccc(-c2ccc(O)cc2)cc1F)n1ccnc1 (racemic) | 97 |
| CCC(c1ccc(-c2cc(O)cc(O)c2)cc1)n1ccnc1 (racemic) | 97 |
| CCC(c1ccc(-c2cccc(OC)c2)cc1)n1ccnc1 (racemic) | 96 |
| CCC(c1ccc(-c2ccc(O)c(Cl)c2)cc1)n1ccnc1 (racemic) | 96 |
| CCC(c1ccc(-c2cc(C)c(O)c(C)c2)cc1)n1ccnc1 (racemic) | 85 |
| CCC(c1ccc(-c2ccc(O)c(C)c2)cc1)n1ccnc1 (racemic) | 96 |
| CCC(c1ccc(-c2ccc(O)c(O)c2)cc1F)n1ccnc1 (racemic) | 90 |
| CCC(c1ccc(-c2cccc(O)c2)cc1)n1ccnc1 (racemic) | 95 |

###

inhibition at 2 µM reference
Target: Steroid 17-alpha-hydroxylase/17,20 lyase (Homo sapiens)
Assay: Inhibition of human CYP17 expressed in Escherichia coli coexpressing NADPH-P450 reductase at 2 uM
MEASURE_NAME: inhibition at 2 µM (%)

| COMPOUND | TARGET_SYSTEM | MEASURE_NAME | VALUE_REPORTED |
| --- | --- | --- | --- |
| CCC(c1ccc(-c2cccc(O)c2)cc1)n1ccnc1 (racemic) | Steroid 17-alpha-hydroxylase/17,20 lyase (Homo sapiens) | inhibition at 2 µM | 89 |
| CCC(c1ccc(-c2ccc(O)c(Cl)c2)cc1)n1ccnc1 (racemic) | Steroid 17-alpha-hydroxylase/17,20 lyase (Homo sapiens) | inhibition at 2 µM | 89 |
| CCC(c1ccc(-c2cc(O)cc(O)c2)cc1)n1ccnc1 (racemic) | Steroid 17-alpha-hydroxylase/17,20 lyase (Homo sapiens) | inhibition at 2 µM | 90 |
| CCC(c1ccc(-c2ccc(O)c(C)c2)cc1)n1ccnc1 (racemic) | Steroid 17-alpha-hydroxylase/17,20 lyase (Homo sapiens) | inhibition at 2 µM | 89 |
| CCC(c1ccc(-c2ccc(O)c(O)c2)cc1)n1ccnc1 (racemic) | Steroid 17-alpha-hydroxylase/17,20 lyase (Homo sapiens) | inhibition at 2 µM | 91 |
